biological target: GLUT1 (Homo sapiens, UniProt P11166); test: Glucose transport assay, GLUT1 expressed in hxt^0 yeast cells EBY.S7; details: read-out: IC50 for GLUT1 transport inhibition
Sequence (P11166 whole entry): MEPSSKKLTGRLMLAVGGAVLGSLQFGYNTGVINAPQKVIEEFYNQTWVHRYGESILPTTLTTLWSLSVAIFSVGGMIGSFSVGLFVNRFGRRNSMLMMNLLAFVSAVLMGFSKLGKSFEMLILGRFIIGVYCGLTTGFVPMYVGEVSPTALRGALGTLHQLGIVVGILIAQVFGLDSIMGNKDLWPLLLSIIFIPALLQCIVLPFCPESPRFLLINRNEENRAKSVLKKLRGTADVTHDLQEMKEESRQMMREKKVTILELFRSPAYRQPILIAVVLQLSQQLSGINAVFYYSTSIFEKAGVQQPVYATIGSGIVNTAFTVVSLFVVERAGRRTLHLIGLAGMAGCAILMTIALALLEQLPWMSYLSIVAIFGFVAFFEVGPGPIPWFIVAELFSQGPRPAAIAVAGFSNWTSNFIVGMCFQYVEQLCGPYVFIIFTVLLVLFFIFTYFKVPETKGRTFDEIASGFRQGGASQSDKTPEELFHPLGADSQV
Task for the reader: assign each of the following compounds its reported IC50.
Numbers only, in µM.

>  <Compound>
COc1ccccc1-n1c(/C=C/c2ccc(O)cc2)nc2ccc(Br)cc2c1=O

>  <IC50 [µM]>
25

$$$$
>  <Compound>
Cc1cc(NC(=O)CCC2Cc3ccccc3NC2=O)nc(-c2ccccc2)n1 (stereo not drawn)

>  <IC50 [µM]>
17.7

$$$$

Please look at the items below and tell me IC50 for each one, in order.
1. O=C(Nc1cccc(Cl)c1)c1cccc(NC(=O)c2cccc([N+](=O)[O-])c2)c1
2. Cc1cccnc1OC1CCN(c2cc(N3CCCC3CO)ncn2)CC1 (stereo not drawn)

1: 22.4; 2: 49.4
